# Tested on: L. major promastigotes
# experiment_notes: Parasite counting method
# Type: cell-based
# measurement_setup: microscopic counting, 24, 48 and 72 h at 24 °C
measured_metric: effect on promastigote count (in words)

>>> observed_measurement("S=C(NN=Cc1ccc(Br)cc1)Nc1cccnc1")
"limited activity"
>>> observed_measurement("COc1ccc(C=NNC(=S)Nc2cccnc2)cc1OC")
"limited activity"
>>> observed_measurement("CNC(=S)NN=Cc1ccc(C)cc1")
"mild"
